experiment: Inhibition of beef heart PDE assessed as cyclic AMP level
Design: species or system Bos taurus
outcome measure: pIC50
# log scale: pIC50 equals minus log10 of the concentration in mol/L

pIC50 for `CCOC(=O)C(=O)Nc1cccccc1=O` ?
2.82

pIC50 for `O=C(O)C(=O)Nc1cccccc1=O` ?
2.36

pIC50 for `O=C([O-])C(=O)Nc1cccccc1=O.[K+]` ?
2.29

pIC50 for `Cn1c(=O)c2nc[nH]c2n(C)c1=O` ?
3.29
